CONDITION_CONTEXT: in water, 303.15 K
MEASURED_ATTRIBUTE: solubility (mole fraction)
Lab note: jot down the number only; don't add units.

Entry OC(Cn1cncn1)(Cn1cncn1)c1ccc(F)cc1F : reported solubility (mole fraction) = ?
8.28e-05

* * *

CONDITION_CONTEXT: in ethanol, 303.15 K
MEASURED_ATTRIBUTE: solubility (mole fraction)
Lab note: jot down the number only; don't add units.

Entry OC(Cn1cncn1)(Cn1cncn1)c1ccc(F)cc1F : reported solubility (mole fraction) = ?
0.014

* * *

CONDITION_CONTEXT: in ethanol, 313.15 K
MEASURED_ATTRIBUTE: solubility (mole fraction)

Entry OC(Cn1cncn1)(Cn1cncn1)c1ccc(F)cc1F : reported solubility (mole fraction) = ?
0.0183
